Test system: HCT-8 cells
experimentSummary: Fluorescent HCT-8 host cell growth assay;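 also: percent of host cell growth remaining versus DMSO control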
Assay type: cell-based, human
runParameters: Homo sapiens, HCT-8; compound at 25 μM, relative to DMSO alone
Property: activity at 25 µM; scope: individual compounds
assayReadout: activity at 25 µM (%)

[[record]]
compound = "C[C@H](Oc1ccnc2ccccc12)c1cn(-c2ccc(C#N)c(Cl)c2)nn1"
valueunit = "%"
valuereported = 47

[[record]]
compound = "CC(Oc1cc[n+]([O-])c2ccccc12)c1cn(-c2ccc(Cl)c(Cl)c2)nn1 (stereo not shown)"
valueunit = "%"
valuereported = 33

[[record]]
compound = "CC(Oc1ccnc2ccccc12)c1cn(-c2ccc(Cl)cc2)nn1 (stereo not shown)"
valueunit = "%"
valuereported = 43

[[record]]
compound = "CC(Oc1ccnc2ccccc12)c1cn(-c2ccc(C#N)c(Cl)c2)nn1 (stereo not shown)"
valueunit = "%"
valuereported = 47

[[record]]
compound = "C[C@@H](Oc1cncc2ccccc12)c1cn(-c2ccc(Cl)cc2)nn1"
valueunit = "%"
valuereported = 65

[[record]]
compound = "C[C@H](Oc1ccnc2ccccc12)c1cn(-c2ccc(Cl)c(Cl)c2)nn1"
valueunit = "%"
valuereported = 64

[[record]]
compound = "CC(Oc1ccnc2ccccc12)c1cn(-c2ccc(Cl)c(Cl)c2)nn1 (stereo not shown)"
valueunit = "%"
valuereported = 77

[[record]]
compound = "CC(Oc1cc[n+]([O-])c2ccccc12)c1cn(-c2ccc(Cl)cc2)nn1 (stereo not shown)"
valueunit = "%"
valuereported = 44

[[record]]
compound = "C[C@@H](Oc1cc[n+]([O-])c2ccccc12)c1cn(-c2ccc(Cl)cc2)nn1"
valueunit = "%"
valuereported = 94

[[record]]
compound = "CC(Oc1cccc2ncccc12)c1cn(-c2ccc(Cl)cc2)nn1 (stereo not shown)"
valueunit = "%"
valuereported = 58

